Data origin: patent US20160280651A1

Molecular target: HAB1 with PYR/PYL receptors (Arabidopsis thaliana)
Construct: 6xHis (N)
Sequence (Q9FLB1 whole entry): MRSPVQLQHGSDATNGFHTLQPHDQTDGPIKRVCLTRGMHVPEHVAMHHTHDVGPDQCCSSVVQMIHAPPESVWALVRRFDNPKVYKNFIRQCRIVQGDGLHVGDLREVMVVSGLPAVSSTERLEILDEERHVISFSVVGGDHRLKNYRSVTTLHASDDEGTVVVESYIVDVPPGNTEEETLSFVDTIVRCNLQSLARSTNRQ
Sequence (Q9CAJ0 whole entry partner): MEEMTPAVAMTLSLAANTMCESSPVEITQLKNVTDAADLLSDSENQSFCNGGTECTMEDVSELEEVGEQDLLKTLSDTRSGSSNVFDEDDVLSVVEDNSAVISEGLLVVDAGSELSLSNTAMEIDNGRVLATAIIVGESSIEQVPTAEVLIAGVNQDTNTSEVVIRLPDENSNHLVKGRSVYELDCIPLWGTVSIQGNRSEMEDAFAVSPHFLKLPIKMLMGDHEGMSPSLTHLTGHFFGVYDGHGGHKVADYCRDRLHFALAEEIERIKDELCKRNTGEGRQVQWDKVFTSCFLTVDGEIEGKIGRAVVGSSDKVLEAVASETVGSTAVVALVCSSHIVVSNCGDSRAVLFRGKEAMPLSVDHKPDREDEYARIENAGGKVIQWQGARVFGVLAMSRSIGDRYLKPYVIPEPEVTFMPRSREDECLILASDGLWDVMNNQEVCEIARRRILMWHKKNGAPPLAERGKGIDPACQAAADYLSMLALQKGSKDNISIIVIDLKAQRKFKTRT
Experiment: Receptor-mediated PP2C inhibition assay with HAB1, Example 1
Settings: PYL5; read-out: IC50 of PYL5 activation
measured-parameter: IC50 (µM)
Report the value in µM with no unit label.

Qu. Which value of IC50 has been reported for O=S(=O)(NCc1ccccn1)c1ccc(Br)c2ccccc12 [pyrabactin, reference compound] in the records?
Ans. 0.9
